Reference source: the supplement of paper PMC10724198

Test system: Saccharomyces cerevisiae
Assay: protein stability index of tFT-peptide fusion (C-terminal peptide) (PSI (0-1 scale)); higher = more stable (slower turnover)
Details: genetic background: wild type; temperature: 30 C
# protein stability index listing for each entry below
Please state the value as a number alone, without comment.

>>> df
   sequence_content                  measure  reported_value
0      LCWGGRCGSGPG  protein stability index            0.72
1      HRSHVRHSFPNP  protein stability index           0.703

Then this sequence:
Summary for this sequence, `PLTPPRLPRPFH` : protein stability index is 0.712

---

protein stability index values for the sequences below.
Tested on: Saccharomyces cerevisiae
Assay: protein stability index of tFT-peptide fusion (C-terminal peptide) (PSI (0-1 scale)); higher = more stable (slower turnover)
Details: genetic background: cdc53-1; temperature: 37 C
Give your answer as a number; write no unit.

In [3]: df
Out[3]:
   sequence_content  reported_value
0      FLTSPSVWRYLF            0.72

Lab book: protein stability index of `FSLGGVPYVFFV` noted as 0.694

`FCLLRYPFVGVL` has a reported protein stability index of 0.683

Recorded protein stability index (sequence `LPLHPHRSRYLV` ): 0.691

Value of protein stability index reported for the sequence `MWRWASKCRFSM` is 0.706

---

Test system: Saccharomyces cerevisiae
Test: protein stability index of tFT-peptide fusion (C-terminal peptide) (PSI (0-1 scale)); higher = more stable (slower turnover)
Details: genetic background: wild type; temperature: 30 C
Measure: protein stability index

Value of protein stability index reported for the sequence `PPPPCPSYLPPS` is 0.693

The reported protein stability index of the sequence `DRVGGDWMERGG` was 0.719

The reported protein stability index of the sequence `SPSPFRPAPSLH` was 0.705

Noted for `KKICLEWMLLQS` : its protein stability index reads 0.701

get_value(item= `PPSRDRSGCISV` , readout=protein stability index) returns 0.709

---

Tested on: Saccharomyces cerevisiae
Experiment: protein stability index of tFT-peptide fusion (C-terminal peptide) (PSI (0-1 scale)); higher = more stable (slower turnover)
Conditions: genetic background: wild type; temperature: 30 C
Measure: protein stability index
Answer with a bare number; do not write a unit.

Please review the following examples before continuing.
>>> print(df.to_string())
                          sequence_content                  measure  reported_value
0     GRPSMVPIAELK [MLH3 C-terminal 12 aa]  protein stability index           0.714
1     ALSADGIYTIAN [PAU5 C-terminal 12 aa]  protein stability index           0.697
2     EDVQLALNKHMN [YAP1 C-terminal 12 aa]  protein stability index            0.69
3   YSLYRSRSKEAF [SAP190 C-terminal 12 aa]  protein stability index           0.692
4     SILTHSTSPDSR [HYM1 C-terminal 12 aa]  protein stability index           0.718
5  GVIIELGSWSAW [YDR415C C-terminal 12 aa]  protein stability index           0.717

Data point: CVVGTLGSDLKS [YPR150W C-terminal 12 aa] ; protein stability index = 0.697

Query TLEDLGAKVSLE [MNP1 C-terminal 12 aa] yields protein stability index of 0.711

// protein stability index lookup, sequence = VYDYQYIYKGKQ [SIA1 C-terminal 12 aa] , result: 0.698

Reported protein stability index of MIENEKQNPAKQ [OSH6 C-terminal 12 aa] : 0.692

Looking up ASQAKNSIEDDV [GTR2 C-terminal 12 aa] , I found its protein stability index recorded as 0.689

So, NYESVEVPAANN [YML018C C-terminal 12 aa] ? Its protein stability index was 0.71

In plain terms, FIENVLKKRNMK [LIP5 C-terminal 12 aa] has a documented protein stability index of 0.7

The sequence identified as MPSATTKNPYAQ [CAF120 C-terminal 12 aa] registered its protein stability index at 0.686

Measured protein stability index, KQKDKEKNALLL [YBR113W C-terminal 12 aa] : 0.68
